# Run Description: Lipophilicity, log D at pH 7.4
# Setup Conditions: buffer
In plain terms, low logD, meaning strictly below 2, gives label 1, and everything else gives label 0.

Hello, I'm reviewing records and need to know if logD of "COc1ccccc1Oc1ccccc1CN1CCC2(CC1)CCN(C(=O)c1cc[n+]([O-])cc1)CC2" is below 2. Could you check? label 1

Hello, I'm reviewing records and need to know if logD of "O=C(c1cc[n+]([O-])cc1)N1CCC2(CCN(Cc3cccc(Oc4ccccc4)c3)CC2)CC1" is below 2. Could you check? label 1

Hello, I'm reviewing records and need to know if logD of "COc1ccccc1Oc1ccccc1CN1CCC2(CC1)CCN(C(=O)c1cccc[n+]1[O-])CC2" is below 2. Could you check? label 1

Hello, I'm reviewing records and need to know if logD of "COc1ccccc1Oc1cccc(CN2CCC3(CC2)CCN(C(=O)c2ccc(Cl)cc2)CC3)c1" is below 2. Could you check? label 0

Hello, I'm reviewing records and need to know if logD of "O=C(c1ccncn1)N1CCC2(CCN(Cc3cccc(Oc4ccccc4)c3)CC2)CC1" is below 2. Could you check? label 0

Hello, I'm reviewing records and need to know if logD of "O=C(c1ccc(Cl)cc1)N1CCC2(CCN(Cc3ccccc3Oc3ccccc3)CC2)CC1" is below 2. Could you check? label 0

Hello, I'm reviewing records and need to know if logD of "COc1ccccc1Oc1ccccc1CN1CCC2(CC1)CCN(C(=O)c1ccncc1)CC2" is below 2. Could you check? label 1

Hello, I'm reviewing records and need to know if logD of "O=C(c1ccc(O)cc1OC[C@@H](O)CN1CCC2(CC1)Cc1cc(Cl)ccc1O2)N1C[C@H](O)CO1" is below 2. Could you check? label 1
